System: Human islets
Assay Text: Insulin secretion assay
Assay type: cell-based
Condition Details: human islet cells, KRBH with 11.2 mM glucose, insulin measured by SPA; read-out: EC50 of stimulated insulin secretion from islet cells
pEC50: −log10 of the molar value.
This listing pairs compounds with measured pEC50.

[
  {
    "Compound": "Cn1cncc1[C@@H](CC(=O)O)c1ccc(OCc2ccc3c(c2)C(C)(C)CCC3(C)C)cc1 [Example 4]",
    "pEC50": "> 6.00"
  }
]

Give the reported pEC50 for CC1(C)CCC(C)(C)c2cc(COc3ccc(C(CC(=O)O)c4cncnc4)cc3)ccc21 (racemic) [Example 9] (system: Human islets).
> 6.00

====

Target Or Test System: human GPR40 (Homo sapiens)
Sequence (O14842 whole entry): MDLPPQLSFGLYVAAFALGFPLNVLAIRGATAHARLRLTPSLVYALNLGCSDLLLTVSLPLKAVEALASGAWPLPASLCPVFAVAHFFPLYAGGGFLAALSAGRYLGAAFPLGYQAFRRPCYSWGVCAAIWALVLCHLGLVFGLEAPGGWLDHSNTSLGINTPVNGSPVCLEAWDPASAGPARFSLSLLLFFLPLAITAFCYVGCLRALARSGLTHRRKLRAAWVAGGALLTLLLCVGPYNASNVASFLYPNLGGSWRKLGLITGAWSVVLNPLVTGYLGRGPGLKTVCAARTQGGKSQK
Assay Text: Cell-based aequorin assay using human GPR40
Condition Details: CHO cells stably transfected with GPR40 and Aequorin; 0.01% HSA; aequorin luminescence; read-out: Relative EC50
pEC50: −log10 of the molar value.
Quantity: pEC50

[
  {
    "Compound": "CC1(C)CCC(C)(C)c2cc(COc3ccc([C@@H](/C=C/Cc4ccccc4)CC(=O)O)cc3)ccc21",
    "Meas Value": "5.00 to 6.00"
  },
  {
    "Compound": "Cn1ccnc1[C@@H](CC(=O)O)c1ccc(OCc2ccc3c(c2)C(=O)CCC3(C)C)cc1",
    "Meas Value": "5.00 to 6.00"
  },
  {
    "Compound": "Cn1ccnc1[C@@H](CC(=O)O)c1ccc(OCc2ccc3c(c2)OCCO3)cc1",
    "Meas Value": "5.00 to 6.00"
  }
]

Item `CC1(C)CCC(C)(C)c2cc(COc3ccc([C@H](CC(=O)O)C4=NOCC4)cc3)ccc21` has what recorded pEC50?
7.00 to 8.00

// repeat for `Cn1ccnc1[C@@H](CC(=O)O)c1ccc(OCc2ccc3c(c2)C(C)(C)CC3(C)C)cc1` and report
6.00 to 7.00

// repeat for `Cn1ccnc1[C@@H](CC(=O)O)c1ccc(OCc2ccc3c(c2)OC(F)(F)O3)cc1` and report
6.00 to 7.00

====

Target Or Test System: UniProtKB O14842
Assay Text: Cell-based aequorin assay using human GPR40
Condition Details: CHO cells stably transfected with GPR40 and Aequorin; 0.01% HSA; aequorin luminescence; read-out: Relative EC50
Quantity: EC50

These recorded examples may help you get a feel for the data.
[
  {
    "Molecule": "Cn1ccnc1[C@@H](CC(=O)O)c1ccc(OCc2ccc3c(c2)CCCC3(C)C)cc1 [Example 75]",
    "EC50": "100 to 1000 nM"
  },
  {
    "Molecule": "CC#CC(CC(=O)O)c1ccc(OCc2ccc3c(c2)C[C@@H](c2ccc(Cl)cc2)O3)cc1 (single isomer, unassigned) [Example 76]",
    "EC50": "10 to 100 nM"
  },
  {
    "Molecule": "CC#C[C@H](CC(=O)O)c1ccc(OCc2ccc3c(c2)C(C)(C)CCC3(C)C)cc1 [Example 20]",
    "EC50": "1000 to 10000 nM"
  },
  {
    "Molecule": "CC1(C)CCC(C)(C)c2cc(COc3ccc([C@H](CC(=O)O)c4ncco4)cc3)ccc21 [Example 12]",
    "EC50": "100 to 1000 nM"
  },
  {
    "Molecule": "CCC1(CC)CCC(C)(C)c2ccc(COc3ccc([C@H](CC(=O)O)c4nnnn4C)cc3)cc21 [Example 73]",
    "EC50": "10 to 1000 nM"
  }
]

Item CC/C(C)=C/[C@H](CC(=O)O)c1ccc(OCc2ccc3c(c2)C(C)(C)CCC3(C)C)cc1 [Example 79] has what recorded EC50?
1000 to 10000 nM
